Just for reference, PubChem BioAssay (Tox21) is where these values come from.

# assay_method_text: A CellTox Green Cytotoxicity Assay to monitor cytotoxicity in HepG2 cells - 8 hour (AID 1224890); also: nearly all actives have a fitted effect of over 45% in size
# condition_set: CellTox Green fluorescence; series mostly up to 76.8 µM
Records with an inconclusive call do not appear. Activity calls are given as the source filed them. Calls follow the shape of the dose curve; as a rule, active = well fitted activation curve with a large enough effect in the repeat runs; inconclusive = weak or mixed curves; inactive = flat fitted curve, though single readings scatter.
Possible outcomes: active, inactive

molecule | cat
O=[N+]([O-])c1cc(C(F)(F)F)cc([N+](=O)[O-])c1Cl | inactive
CN1[C@@H]2CC[C@H]1CC(OC(=O)c1cc(Cl)cc(Cl)c1)C2 (stereo partly specified) | inactive
COc1nn(C(=O)NS(=O)(=O)c2ccccc2OC(F)(F)F)c(=O)n1C | active
COCC(C)N(C(=O)CCl)c1c(C)csc1C (stereo unspecified) | inactive
COP(=S)(OC)Oc1ccc([N+](=O)[O-])cc1Cl | inactive
ClCCCCBr | inactive
